Test system: MOLT-4 leukemia
Experiment: NCI-60 one-dose screen, 48 h (100 = growth as untreated, 0 = no growth, -100 = all killed)
Settings: 10 µM unless noted
Method: Growth inhibition of the MOLT-4 human tumor cell line is measured as a screen for anti-cancer activity. Cells are grown in 96 well plates and exposed to the test compound for 48 hours. Compounds are tested at a single concentration, which is 10^-5 M for most compounds. The reported endpoint is percent growth (GI% or GIPRCNT), where numbers from 0 - 100% represent growth inhibition, and numbers from -100% - 0 represent cell death. For example, a value of 40 represents 60% growth inhibition. […]
About 83,000 compounds went through this panel and 20% of them were active in at least one assay; those are over-represented in the sample as a whole.
measurementKind: growth (%)
The answer is to be given in %; state only the numeric part.

Input `O=S(=O)(NCCCNc1nccc(-c2c(-c3ccc(F)c(O)c3)nc3sccn23)n1)c1ccc(F)cc1` . Output growth: -3.88

Input `COc1cc(-c2nc3sccn3c2-c2ccnc(NCCNS(=O)(=O)c3ccc(F)cc3)n2)ccc1F` . Output growth: -15.4

Input `CCCCCCNC(=O)Oc1ccc(/C(=C(/CC)Cc2ccccc2)c2ccc(OCCN(CC)CC)cc2)cc1` . Output growth: 35.2

Input O=C(OC(OC(=O)c1cc(Cl)cc(Cl)c1)c1cccc2ccccc12)c1ccccc1 (stereo not given) . Output growth: 103

Now examine the next entry.
Input CC(=O)N1c2ccccc2NC2=C(C(=O)N(Cc3ccccc3)C2(C)C)C1c1ccco1 (stereo not given) . Output growth: 28.6
